So I've got a bunch of compounds here, and I need their melting point values.

CS(=O)(=O)c1ccc(-c2nc(C(F)(F)F)nc(N3CCN(Cc4ccc([N+](=O)[O-])s4)CC3)c2-c2ccccc2)cc1 :: 168 to 174 °C
CS(=O)(=O)c1ccc(-c2nc(C(F)(F)F)nc(NN)c2-c2ccc(S(=O)(=O)NN)cc2)cc1 :: 203 to 206 °C
CS(=O)(=O)c1ccc(-c2nc(C(F)(F)F)nc(N3CCN(c4ccccn4)CC3)c2-c2ccccc2)cc1 :: 229 to 233 °C
FC(F)(F)c1nc(-c2ccccc2)c(-c2ccccc2)c(N2CCN(c3ccccn3)CC2)n1 :: 165 to 167 °C

I'm hoping you can list melting point for every compound here, please.
1. CS(=O)(=O)c1ccc(-c2nc(C(F)(F)F)nc(OS(=O)(=O)c3cccc4ccccc34)c2-c2ccccc2)cc1
2. CS(=O)(=O)c1ccc(-c2nc(C(F)(F)F)nc(Cl)c2-c2ccc(S(=O)(=O)Cl)cc2)cc1
3. CC(=O)NS(=O)(=O)c1ccc(-c2c(Cl)nc(C(F)(F)F)nc2-c2ccc(S(C)(=O)=O)cc2)cc1
4. O=C(NNc1nc(C(F)(F)F)nc(-c2ccncc2)c1-c1ccc(F)cc1)C(F)(F)F
5. CNS(=O)(=O)c1ccc(-c2c(Cl)nc(C(F)(F)F)nc2-c2ccc(S(C)(=O)=O)cc2)cc1
6. CS(=O)(=O)c1ccc(-c2nc(C(F)(F)F)nc(N3CCN(Cc4ccncc4)CC3)c2-c2ccccc2)cc1

1: 204 to 206 °C; 2: 207 to 210 °C; 3: 230 to 235 °C; 4: 240 to 242 °C; 5: 226 to 230 °C; 6: 228 to 232 °C

====

- Tested on: purified recombinant COX-1
- measurement_description: COX-1 enzyme based assay
- Format: biochemical
- experimental_setup: 10 μM
Think of 30% as a floor: if % Inhibition in rEnzyme Assay COX-1 stands on it or above, it is satisfied; beneath it, not satisfied.

NS(=O)(=O)c1cccc(-c2c(-c3ccccc3)nc(C(F)(F)F)nc2N2CCN(c3ccccn3)CC2)c1 [Example 58] :: not satisfied
CCOC(=O)C1CCN(c2nc(C(F)(F)F)nc(-c3ccc(F)cc3)c2-c2cccc(S(N)(=O)=O)c2)CC1 [Example 59] :: satisfied
NS(=O)(=O)c1cccc(-c2c(-c3ccccc3)nc(C(F)(F)F)nc2N2CCN(c3ccc(C(F)(F)F)cn3)CC2)c1 [Example 116] :: not satisfied
NS(=O)(=O)c1cccc(-c2c(-c3ccc(F)cc3)nc(C(F)(F)F)nc2N2CCN(c3ccccn3)CC2)c1 [Example 53] :: satisfied
NS(=O)(=O)c1cccc(-c2c(-c3ccc(F)cc3)nc(C(F)(F)F)nc2N2CCN(c3ncccn3)CC2)c1 [Example 54] :: satisfied
CNS(=O)(=O)c1ccc(-c2c(N)nc(C(F)(F)F)nc2-c2ccc(S(C)(=O)=O)cc2)cc1 [Example 2] :: satisfied
NS(=O)(=O)c1cccc(-c2c(-c3ccccc3)nc(C(F)(F)F)nc2N2CCN(c3ncccn3)CC2)c1 [Example 57] :: not satisfied

Now look at this entry.
# bool: % Inhibition in rEnzyme Assay COX-1 of NS(=O)(=O)c1cccc(-c2c(-c3ccccc3)nc(C(F)(F)F)nc2N2CCNCC2)c1 [Example 51] >= 30%
not satisfied

====

So I've got a bunch of compounds here, and I need their % Inhibition in rEnzyme Assay COX-1 values.
- Test system: purified recombinant COX-1
- measurement_description: COX-1 enzyme based assay
- Type: biochemical
- experimental_setup: 1 μM
One number for each entry, in %.

CNS(=O)(=O)c1ccc(-c2c(N)nc(C(F)(F)F)nc2-c2ccc(S(C)(=O)=O)cc2)cc1 :: 33.84
NS(=O)(=O)c1cccc(-c2c(-c3ccc(F)cc3)nc(C(F)(F)F)nc2N2CCN(c3ccccn3)CC2)c1 :: 46.29
NS(=O)(=O)c1cccc(-c2c(-c3ccccc3)nc(C(F)(F)F)nc2N2CCN(c3ccc(C(F)(F)F)cn3)CC2)c1 :: 6.29

I'm hoping you can list % Inhibition in rEnzyme Assay COX-1 for every compound here, please.
1. NS(=O)(=O)c1cccc(-c2c(-c3ccccc3)nc(C(F)(F)F)nc2N2CCN(c3ccccn3)CC2)c1
2. NS(=O)(=O)c1cccc(-c2c(-c3ccccc3)nc(C(F)(F)F)nc2N2CCNCC2)c1
3. NS(=O)(=O)c1cccc(-c2c(-c3ccc(F)cc3)nc(C(F)(F)F)nc2N2CCN(c3ncccn3)CC2)c1

1. 10.22
2. 8.27
3. 34.42

====

- Test system: PDE4
- Construct: other: 10 μM, source human U937 cells; PDE4 at 10 μm
- measurement_description: PDE4 activity (source human U937 cells)
- Type: biochemical
- experimental_setup: 10 μM, source human U937 cells
reported_endpoint: PDE4 inhibition at 10 μM (%)
Give bare numbers, in %.

Please review the following examples before continuing.
NS(=O)(=O)c1cccc(-c2c(-c3ccccc3)nc(C(F)(F)F)nc2N2CCC(=O)CC2)c1 :: 84
NS(=O)(=O)c1cccc(-c2c(-c3ccc(F)cc3)nc(C(F)(F)F)nc2N2CCN(C(=O)C(F)(F)F)CC2)c1 :: 90
NS(=O)(=O)c1cccc(-c2c(-c3ccc(F)cc3)nc(C(F)(F)F)nc2N2CCN(S(=O)(=O)C(F)(F)F)CC2)c1 :: 94
NS(=O)(=O)c1cccc(-c2nc(C(F)(F)F)nc(-n3ccnc3)c2-c2ccccc2)c1 :: 82
NS(=O)(=O)c1cccc(-c2c(-c3ccc(F)cc3)nc(C(F)(F)F)nc2-n2ccnc2)c1 :: 87
N#CCCN1CCN(c2nc(C(F)(F)F)nc(-c3ccc(F)cc3)c2-c2cccc(S(N)(=O)=O)c2)CC1 :: 92
Fc1ccc(-c2nc(C(F)(F)F)nc(NC3CC3)c2-c2ccccc2)cc1 :: 88
CCOC(=O)C1CCN(c2nc(C(F)(F)F)nc(-c3ccc(F)cc3)c2-c2cccc(S(N)(=O)=O)c2)CC1 :: 93

// next entry
Quick one: PDE4 inhibition at 10 μM (%) of "NS(=O)(=O)c1cccc(-c2c(-c3ccccc3)nc(C(F)(F)F)nc2N2CCN(C(=O)C(F)(F)F)CC2)c1" ?
87

====

So I've got a bunch of compounds here, and I need their IC50 values.
- Tested on: TNF- α
- measurement_description: TNF-α IC50 (Table XVa, assay not given)
- Format: cell-based
- experimental_setup: Table XVa summary
Numbers only, in nM.

CCOC(=O)C1CCN(c2nc(C(F)(F)F)nc(-c3ccc(F)cc3)c2-c2cccc(S(N)(=O)=O)c2)CC1 :: 64

Quick one: IC50 of "NS(=O)(=O)c1cccc(-c2c(-c3ccc(F)cc3)nc(C(F)(F)F)nc2-n2ccnc2)c1" ?
78

====

- System: PDE4
- measurement_description: PDE4 activity (source human U937 cells)
- Assay type: biochemical
- experimental_setup: read-out: PDE4 inhibition IC50 (nm)
- Experimental: PDE4 inhibition was measured by following a literature assay procedure (Cortizo J et al., Br J. Pharmacol., 1993, 108: 562-568. The assay method involves the following conditions. Substrate: 1.01 μM [^3H] camp+camp Pre-Incubation Time/Temperature: 15 minutes at 25° C. Incubation Time/Temperature. 20 minutes at 25° C. Incubation buffer: 50 mM Tris-HCl, pH 7.5, 5 mM MgCl2 Quantitation method: Quantitation of [^3H] Adenosine Significance criteria: ≧50% of max stimulation or inhibition
reported_endpoint: pIC50
One number for each entry, as −log10 of the molar value.

Quick one: pIC50 of "NS(=O)(=O)c1cccc(-c2c(-c3ccccc3)nc(C(F)(F)F)nc2N2CCOCC2)c1" ?
8.15
